- test: Tanguay_ZF_120hpf_ActivityScore_legacy: (Legacy) Oregon State University Tanguay Lab 120 Hour Post-fertilization zebrafish Assay Score for Activity (AID 2283742)
The source made the active and inactive calls. How the source made its calls: active means hit-call score of the fitted dose curve at least 0.9, where 1 is the maximum; inconclusive means response in the unintended direction; inactive means score below 0.9.
Hi! Could you answer with just one of these? label 1 = active, label 0 = inactive

| molecule | answer label |
| --- | --- |
| N#Cc1c(Cl)cccc1Cl | label 0 |
| CC1(C)C(C=C(Cl)Cl)C1C(=O)OC(C#N)c1cccc(Oc2ccccc2)c1 (stereo not drawn) | label 1 |
| CCCN(CC)CC1COC2(CCC(C(C)(C)C)CC2)O1 (stereo not drawn) | label 0 |
| Clc1nc(Cl)nc(Nc2ccccc2Cl)n1 | label 0 |
| CC1(C)CCC(=Cc2ccc(Cl)cc2)C1(O)Cn1cncn1 (stereo not drawn) | label 0 |

[Q] Returns: the outcome recorded for Cc1ccc(N=CN(C)C=Nc2ccc(C)cc2C)c(C)c1 in this assay.
[A] label 0

[Q] Returns: the outcome recorded for Cn1c(-c2ccccc2)cc(-c2ccccc2)[n+]1C in this assay.
[A] label 0

[Q] Returns: the outcome recorded for O=c1n(Cl)c(=O)n(Cl)c(=O)n1Cl in this assay.
[A] label 0

[Q] Returns: the outcome recorded for COC(=O)NC(=S)Nc1ccccc1NC(=S)NC(=O)OC in this assay.
[A] label 0

[Q] Returns: the outcome recorded for O=C(O)c1c(Cl)ccc2cc(Cl)cnc12 in this assay.
[A] label 0

[Q] Returns: the outcome recorded for Nc1c(Cl)c(F)nc(OCC(=O)O)c1Cl in this assay.
[A] label 0

[Q] Returns: the outcome recorded for CCN(CC)c1nc(C)cc(OP(=S)(OC)OC)n1 in this assay.
[A] label 0

[Q] Returns: the outcome recorded for CN=C=S in this assay.
[A] label 0

* * *

- Read-out: Macrophage colony-stimulating factor (MCSF), CSF1 (gene 1435)
- test: BSK_CASM3C_MCSF: BioMAP Diversity Plus: CASM3C Assay for Macrophage colony-stimulating factor (MCSF) Biomarker Activity (AID 2283044);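 further: M-CSF protein amount quantified by ELISA after 24 h exposure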
- experimental setup: primary human coronary artery smooth muscle cells; actives raise or lower the signal
Activity calls are given as the source filed them. The calls were made as follows: active = hit-call score of the fitted dose curve at least 0.9, where 1 is the maximum; inactive = score below 0.9.
Hi! Could you answer with just one of these? true (1) = active, false (0) = inactive

| compound | answer label |
| --- | --- |
| CC(C)(C)C(=O)C(Oc1ccc(Cl)cc1)n1cncn1 (configuration not stated) | false (0) |

[Q] Returns: the outcome recorded for CCCN(CC)CC1COC2(CCC(C(C)(C)C)CC2)O1 (configuration not stated) in this assay.
[A] false (0)

[Q] Returns: the outcome recorded for CC(C)Oc1cccc(NC(=O)c2ccccc2C(F)(F)F)c1 in this assay.
[A] false (0)

[Q] Returns: the outcome recorded for CCN(CC)c1nc(C)cc(OP(=S)(OC)OC)n1 in this assay.
[A] false (0)

[Q] Returns: the outcome recorded for N#CN=C1SCCN1Cc1ccc(Cl)nc1 in this assay.
[A] false (0)

[Q] Returns: the outcome recorded for Clc1nc(Cl)nc(Nc2ccccc2Cl)n1 in this assay.
[A] false (0)

[Q] Returns: the outcome recorded for Nc1c(Cl)c(Cl)nc(C(=O)O)c1Cl in this assay.
[A] false (0)

[Q] Returns: the outcome recorded for CC(C)C1(C)N=C(c2ncccc2C(=O)O)NC1=O (configuration not stated) in this assay.
[A] false (0)

[Q] Returns: the outcome recorded for CCOP(=O)(OCC)Oc1nc(Cl)c(Cl)cc1Cl in this assay.
[A] false (0)

[Q] Returns: the outcome recorded for CCCCOCN(C(=O)CCl)c1c(CC)cccc1CC in this assay.
[A] true (1)

[Q] Returns: the outcome recorded for O=P(O)(O)CCCl in this assay.
[A] false (0)

[Q] Returns: the outcome recorded for CN/C(=N\[N+](=O)[O-])NCc1cnc(Cl)s1 in this assay.
[A] false (0)

[Q] Returns: the outcome recorded for O=C(O)c1c(Cl)ccc2cc(Cl)cnc12 in this assay.
[A] false (0)

[Q] Returns: the outcome recorded for COC(=O)NS(=O)(=O)c1ccc(N)cc1 in this assay.
[A] false (0)

[Q] Returns: the outcome recorded for CCCCC(O)(Cn1cncn1)c1ccc(Cl)cc1Cl (configuration not stated) in this assay.
[A] false (0)

[Q] Returns: the outcome recorded for OC(c1ccc(Cl)cc1)(c1ccc(Cl)cc1)C(Cl)(Cl)Cl in this assay.
[A] true (1)

[Q] Returns: the outcome recorded for CC1(C)CCC(=Cc2ccc(Cl)cc2)C1(O)Cn1cncn1 (configuration not stated) in this assay.
[A] false (0)

[Q] Returns: the outcome recorded for Cc1c(COC(=O)[C@@H]2[C@H](/C=C(\Cl)C(F)(F)F)C2(C)C)cccc1-c1ccccc1 in this assay.
[A] false (0)

[Q] Returns: the outcome recorded for COc1cc(Cl)c(OC)cc1Cl in this assay.
[A] false (0)

[Q] Returns: the outcome recorded for CC1(C)C(C(=O)OC(C#N)c2cccc(Oc3ccccc3)c2)C1(C)C (configuration not stated) in this assay.
[A] false (0)

[Q] Returns: the outcome recorded for Nc1cnn(-c2ccccc2)c(=O)c1Cl in this assay.
[A] false (0)

[Q] Returns: the outcome recorded for CN=C=S in this assay.
[A] false (0)

[Q] Returns: the outcome recorded for CNC(=O)Oc1cccc2ccccc12 in this assay.
[A] false (0)

[Q] Returns: the outcome recorded for CCNP(=S)(OC)O/C(C)=C/C(=O)OC(C)C (configuration not stated) in this assay.
[A] false (0)

* * *

- test: BSK_hDFCGF_Proliferation: Cell Proliferation Assessment in the BioMAP Diversity Plus: hDFCGF Assay (AID 2283059);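 further: curves fitted for both rise and fall of signal versus DMSO baseline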
- experimental setup: primary human foreskin fibroblasts
- Description: BSK_hDFCGF is a cell-based, multiplexed-readout assay that uses foreskin fibroblast, a human skin primary cell, with measurements taken at 24 hours after chemical dosing in a 96-well plate.BSK_hDFCGF_Proliferation is an assay component measured in the BSK_hDFCGF assay. It measures […] related to cell proliferation using Sulforhodamine staining technology.Data from the assay component BSK_hDFCGF_Proliferation was analyzed into 1 assay endpoint. […]
Active and inactive are the calls of the source. The calls were made as follows: active = hit-call score of the fitted dose curve at least 0.9, where 1 is the maximum; inactive = score below 0.9.
Hi! Could you answer with just one of these? active, inactive

Example results:
| compound | answer label |
| --- | --- |
| COC(=O)NC(=S)Nc1ccccc1NC(=S)NC(=O)OC | active |
| CCNC(=O)NC(=O)C(C#N)=NOC | inactive |
| O=P(O)(O)CCCl | inactive |

[Q] Returns: the outcome recorded for CCCN(CC)CC1COC2(CCC(C(C)(C)C)CC2)O1 (stereo unspecified) in this assay.
[A] active

[Q] Returns: the outcome recorded for Clc1cccc(C(Cl)(Cl)Cl)n1 in this assay.
[A] inactive

[Q] Returns: the outcome recorded for Nc1c(Cl)c(F)nc(OCC(=O)O)c1Cl in this assay.
[A] inactive

* * *

- tested system: rat Monoamine Oxidase, MAO-B, Central (MAOBC), Maob (gene 25750)
- test: NVS_ENZ_rMAOBC: NovaScreen (NVS) Enzymatic Assay for rat Monoamine Oxidase, MAO-B, Central (MAOBC) (AID 2283238)
Inconclusive results are not listed. The source made the active and inactive calls. The calls were made as follows: active = hit-call score of the fitted dose curve at least 0.9, where 1 is the maximum; inconclusive = response in the unintended direction; inactive = score below 0.9.
Hi! Could you answer with just one of these? T for active, F for inactive

| molecule | answer label |
| --- | --- |
| Cc1ccc(N=CN(C)C=Nc2ccc(C)cc2C)c(C)c1 | F |
| N#Cc1c[nH]cc1-c1cccc2c1OC(F)(F)O2 | F |
| CC1(C)CCC(=Cc2ccc(Cl)cc2)C1(O)Cn1cncn1 (stereo not given) | F |
| CNC(=O)Oc1cccc2ccccc12 | T |

[Q] Returns: the outcome recorded for COc1ccc(-c2ccccc2)cc1NNC(=O)OC(C)C in this assay.
[A] T

* * *

- test: CCTE_Simmons_MITO_inhib_resp_rate: CCTE's HepG2 Seahorse XF Respirometric Screening Assay at Inhibited Respiratory State [full ETC block], Simmons Lab (AID 2284006)
- experimental setup: actives raise or lower the signal
Active and inactive are the calls of the source. How the source made its calls: active means hit-call score of the fitted dose curve at least 0.9, where 1 is the maximum; inactive means score below 0.9.
reported property: outcome

These solved cases illustrate the format of a correct answer.
| compound | reported property | experimental result |
| --- | --- | --- |
| CC(C)(C)C(=O)C(Oc1ccc(Cl)cc1)n1cncn1 (configuration not stated) | outcome | inactive |
| Nc1c(Cl)c(F)nc(OCC(=O)O)c1Cl | outcome | inactive |
| CCN(CC)c1nc(C)cc(OP(=S)(OC)OC)n1 | outcome | inactive |
| CCOP(=O)(OCC)Oc1nc(Cl)c(Cl)cc1Cl | outcome | inactive |
| Cc1c(COC(=O)[C@@H]2[C@H](/C=C(\Cl)C(F)(F)F)C2(C)C)cccc1-c1ccccc1 | outcome | inactive |
| CCOP(=S)(OCC)Oc1nc(Cl)n(C(C)C)n1 | outcome | inactive |

// below: outcome requested for another compound
[Q] Respond only with outcome recorded for O=C1C2CC=CCC2C(=O)N1SC(Cl)(Cl)Cl (configuration not stated)
[A] inactive

* * *

- Read-out: Nuclear factor erythroid 2-related factor 2 (Homo sapiens)
- test: LTEA_HepaRG_NFE2L2: Life Technologies and Expression Analysis (LTEA) Assay for Nuclear factor erythroid 2-related factor 2 (NFE2L2) Transcription Factor using HepaRG (AID 2283527)
- experimental setup: mRNA level, 48 h; actives raise or lower the signal
Activity calls are given as the source filed them. The calls were made as follows: active = hit-call score of the fitted dose curve at least 0.9, where 1 is the maximum; inactive = score below 0.9.
Hi! Could you answer with just one of these? 1 = active, -1 = inactive

Example results:
| molecule | answer label |
| --- | --- |
| Clc1cccc(C(Cl)(Cl)Cl)n1 | -1 |
| CC1(C)C(C=C(Cl)Cl)C1C(=O)OC(C#N)c1cccc(Oc2ccccc2)c1 (configuration not stated) | -1 |
| CC(C)NC(=O)N1CC(=O)N(c2cc(Cl)cc(Cl)c2)C1=O | 1 |

[Q] Returns: the outcome recorded for CC(C)N1C(=O)c2ccccc2NS1(=O)=O in this assay.
[A] -1

[Q] Returns: the outcome recorded for CCCC(=NOCC)C1=C(O)CC(CC(C)SCC)CC1=O (configuration not stated) in this assay.
[A] -1

[Q] Returns: the outcome recorded for CN=C=S in this assay.
[A] -1

[Q] Returns: the outcome recorded for Clc1nc(Cl)nc(Nc2ccccc2Cl)n1 in this assay.
[A] -1

[Q] Returns: the outcome recorded for CNC(=O)Oc1cccc2ccccc12 in this assay.
[A] -1

[Q] Returns: the outcome recorded for COC(=O)c1c(C(F)F)nc(C(F)(F)F)c(C2=NCCS2)c1CC(C)C in this assay.
[A] -1
